- systemTested: 5-HT1A serotonin receptor subtype (Rattus norvegicus, UniProt P19327)
- Sequence (P19327 1-422): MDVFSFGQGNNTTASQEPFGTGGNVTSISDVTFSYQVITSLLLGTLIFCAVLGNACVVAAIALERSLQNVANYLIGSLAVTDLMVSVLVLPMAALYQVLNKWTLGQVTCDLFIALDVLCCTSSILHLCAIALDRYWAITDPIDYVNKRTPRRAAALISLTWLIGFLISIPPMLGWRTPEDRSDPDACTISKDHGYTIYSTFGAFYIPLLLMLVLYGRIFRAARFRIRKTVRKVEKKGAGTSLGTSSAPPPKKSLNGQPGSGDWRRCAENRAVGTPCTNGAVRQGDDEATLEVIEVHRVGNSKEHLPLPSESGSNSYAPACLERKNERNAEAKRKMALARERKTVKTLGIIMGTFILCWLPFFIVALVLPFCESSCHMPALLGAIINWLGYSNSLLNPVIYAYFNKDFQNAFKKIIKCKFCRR
readoutType: pKi
API: returns pKi as number; meaning -log10 of concentration in mol/L.

Entry under review: COc1ccccc1N1CCN(CCCN2CC3CC4CC(C3)CC2C4)CC1 [Example 4, Hydrate] . Reported pKi? 7.48

The reported numbers originate from patent US5021569A.
